# assay_details: Intrinsic permeability in human Caco2 cells
# Format: ADME, cell-based
# experimental_conditions: Caco-2, read-out: permeability
result_type: Papp (×10⁻⁶ cm/s)
Output spec: scalar in ×10⁻⁶ cm/s, unitless text.

Asked: Endpoint output: Papp of O=C(O)c1ccc(-c2ccc(C(=S)NCc3ccc(-c4ccnn4-c4ccc(Cl)c(Cl)c4)cc3)c(Cl)c2)o1 . Value?
Given back: 14.5

* * *

# target_or_test_system: Replication protein A 70 kDa DNA-binding subunit (Homo sapiens)
# Sequence (P27694 whole entry): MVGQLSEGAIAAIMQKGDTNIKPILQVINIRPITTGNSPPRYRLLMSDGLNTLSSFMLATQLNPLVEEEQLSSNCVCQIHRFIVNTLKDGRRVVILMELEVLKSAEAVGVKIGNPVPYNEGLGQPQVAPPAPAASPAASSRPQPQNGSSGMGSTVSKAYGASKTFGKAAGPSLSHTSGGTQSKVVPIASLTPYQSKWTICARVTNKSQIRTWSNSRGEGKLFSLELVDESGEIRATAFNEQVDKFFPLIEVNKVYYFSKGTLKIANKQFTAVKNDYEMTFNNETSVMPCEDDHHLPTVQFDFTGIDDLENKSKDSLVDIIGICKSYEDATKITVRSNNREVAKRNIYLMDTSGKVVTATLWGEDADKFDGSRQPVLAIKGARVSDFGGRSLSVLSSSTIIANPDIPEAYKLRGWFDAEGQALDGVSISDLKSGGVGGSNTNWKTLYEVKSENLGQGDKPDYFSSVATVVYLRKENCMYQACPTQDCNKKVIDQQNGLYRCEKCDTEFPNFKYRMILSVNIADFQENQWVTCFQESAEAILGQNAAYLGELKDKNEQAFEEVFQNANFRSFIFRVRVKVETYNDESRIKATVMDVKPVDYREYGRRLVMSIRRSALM
# assay_details: Binding affinity to RPA70N protein (unknown origin) by HSQC NMR-based titration method
Attribute: Kd
Output spec: scalar in µM, unitless text.

Answered examples (3):
smiles_repr | experimental_value
Cc1cccc(-n2nc(C(=O)O)cc2-c2ccccc2)c1 | 580
O=C(O)c1cc(-c2ccccc2)n(-c2ccccc2)n1 | 1150
COc1ccc(-n2nc(C(=O)O)cc2-c2ccccc2)cc1 | 895

// next item, Kd requested
Asked: Enter reported Kd observed with Replication protein A 70 kDa DNA-binding subunit (Homo sapiens) for O=C(O)c1cc(-c2ccc(Cl)cc2)n(-c2ccc(Cl)c(Cl)c2)n1
Given back: 54

Origin of values: ChEMBL document CHEMBL3421550
